Data origin: patent US20150191469A1

# Tested on: HIV
# ASSAY: MT4 assay: antiviral HIV activity (cell protection, cell titer glo readout at 96 hours)
# Format: cell-based
# ASSAY CONDITIONS: Human immunodeficiency virus 1, MT4, 96 h, MT4 cells, cell titer glo readout at 96 hours, 10 point dose response; read-out: HIV MT4 Assay IC50
READOUT NAME: IC50 (nM)

I. Cc1nc2c(cc(-c3nnc(N4CCC(N5CCS(=O)(=O)CC5)CC4)o3)n2C)c(-c2cc(F)c3c(c2C)CCCO3)c1[C@H](OC(C)(C)C)C(=O)O
II. Cc1nc2c(cc(-c3ccnc(-c4ccc5c(cnn5C)c4)c3)n2C)c(C)c1[C@H](OC(C)(C)C)C(=O)O
// query Lowest IC50? choose I or II Reply briefly: the label of your chosen item.
// result I

P. Cc1nc2c(cc(CCC(=O)Nc3ccc4c(cnn4C)c3)n2C)c(-c2cc(F)c3c(c2C)CCCO3)c1[C@H](OC(C)(C)C)C(=O)O
Q. Cc1nc2c(cc(C(=O)NCc3ccc(Cl)cc3)n2C)c(-c2cc(F)c3c(c2C)CCCO3)c1[C@H](OC(C)(C)C)C(=O)O
// query Identify the entry with the larger IC50. Options: P and Q Reply briefly: the label of your chosen item.
// result P

I. Cc1nc2c(cc(-c3cc(N4CCN(C5CCOCC5)CC4)ncn3)n2C)c(-c2cc(F)c3c(c2C)CCCO3)c1[C@H](OC(C)(C)C)C(=O)O
II. Cc1nc2c(cc(/C=C/C(=O)NCCO)n2C)c(-c2cc(F)c3c(c2C)CCCO3)c1[C@H](OC(C)(C)C)C(=O)O
// query Lowest IC50? choose I or II Reply briefly: the label of your chosen item.
// result I
